# tested_system: NRAS Q61K (Homo sapiens (Human), UniProt P01111+P62937, Q61K)
# Sequence (P01111 whole entry Q61K): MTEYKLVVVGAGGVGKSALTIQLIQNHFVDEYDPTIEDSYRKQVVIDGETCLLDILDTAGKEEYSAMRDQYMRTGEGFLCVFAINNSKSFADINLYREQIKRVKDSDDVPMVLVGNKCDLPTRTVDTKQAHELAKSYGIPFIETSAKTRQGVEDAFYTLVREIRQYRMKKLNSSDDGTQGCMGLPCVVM
# Sequence (P62937 whole entry): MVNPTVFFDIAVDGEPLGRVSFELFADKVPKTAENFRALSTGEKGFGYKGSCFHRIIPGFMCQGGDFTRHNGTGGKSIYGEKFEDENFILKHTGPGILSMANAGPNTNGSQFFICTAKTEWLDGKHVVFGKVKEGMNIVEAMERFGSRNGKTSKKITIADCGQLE
# procedure_summary: Ras-Raf (BRAF RBD) disruption / FRET / MOA assay, NRAS Q61K
# Type: biochemical
# condition_details: NRAS Q61K; Ras-Raf disruption/FRET/MOA assay; read-out: IC50* NRAS Q61K FRET data
pIC50: −log10 of the molar value.
Hi there, I'd appreciate the recorded pIC50 for every entry that follows.

Return pIC50 for the following molecule: C=CC(=O)NC[C@H]1CCN1C(=O)N(C)[C@H](C(=O)N[C@H]1Cc2nc(cs2)-c2ccc3c(c2)c(c(-c2cccnc2[C@H](C)OC)n3CC)CC(C)(C)COC(=O)[C@@H]2CCCN(N2)C1=O)C(C)C (atropisomer, axis not shown)
6.00 to 7.00

Return pIC50 for the following molecule: CCn1c(-c2cccnc2[C@H](C)OC)c2c3cc(ccc31)-c1cccc(c1)C[C@H](NC(=O)[C@H](C1CCCC1)N(C)C(=O)[C@@H]1CN(C(=O)C#CC(C)(C)N(C)C)C[C@@H]1C)C(=O)N1CCC[C@H](N1)C(=O)OCC(C)(C)C2 (atropisomer, axis not shown)
5.00 to 6.00

* * *

Hi there, I'd appreciate the recorded pEC50 for every entry that follows.
# Tested on: NCI-H358 cells (K-Ras G12C)
# procedure_summary: Potency assay: pERK in NCI-H358 cells
# Format: cell-based, human
# condition_details: Homo sapiens, NCI-H358; H358 KRAS G12C; read-out: pERK EC50
pEC50: −log10 of the molar value.

Name the recorded pEC50 of C=CC(=O)N1CC[C@H](C(=O)N(C)[C@H](C(=O)N[C@H]2Cc3cc(O)cc(c3)-c3ccc4c(c3)c(c(-c3ccc5c(c3)CCN(C)C5)n4CC)CC(C)(C)COC(=O)[C@@H]3CCCN(N3)C2=O)C(C)C)C1 , assay system NCI-H358 cells (K-Ras G12C).
> 5.30

Name the recorded pEC50 of CCn1c(-c2cccnc2[C@H](C)OC)c2c3cc(ccc31)-c1nc(nn1C)C[C@H](NC(=O)[C@@H](COC1CN(C(=O)C#CC(C)(C)N(C)C)C1)C(C)C)C(=O)N1CCC[C@H](N1)C(=O)OCC(C)(C)C2 (atropisomer, axis not shown) , assay system NCI-H358 cells (K-Ras G12C).
> 5.30

Name the recorded pEC50 of C=CC(=O)N1CC[C@H](C(=O)N(C)[C@H](C(=O)NN2Cc3cc(O)cc(c3)-c3ccc4c(c3)c(c(-c3cccnc3[C@H](C)OC)n4CC)CC(C)(C)COC(=O)[C@@H]3CCCN(N3)C2=O)C(C)C)C1 (atropisomer, axis not shown) , assay system NCI-H358 cells (K-Ras G12C).
> 5.30

Name the recorded pEC50 of CCn1c(-c2cccnc2[C@H](C)OC)c2c3cc(ccc31)-c1cccc(c1)C[C@H](NC(=O)[C@@H](COC1CN(C(=O)C#C[C@H]3COCCN3C)C1)C(C)C)C(=O)N1CCC[C@H](N1)C(=O)OCC(C)(C)C2 (atropisomer, axis not shown) , assay system NCI-H358 cells (K-Ras G12C).
> 5.30

Name the recorded pEC50 of C=CC(=O)N1CC2(CCN2C(=O)N(C)[C@H](C(=O)N[C@H]2Cc3nc(n(C)n3)-c3ccc4c(c3)c(c(-c3cccnc3[C@H](C)OC)n4CC)CC(C)(C)COC(=O)[C@@H]3CCCN(N3)C2=O)C(C)C)C1 (atropisomer, axis not shown) , assay system NCI-H358 cells (K-Ras G12C).
> 5.30

Name the recorded pEC50 of C=CS(=O)(=O)N1CC[C@H](C(=O)N(C)[C@H](C(=O)N[C@H]2Cc3nc(cs3)-c3ccc4c(c3)c(c(-c3cccnc3[C@H](C)OC)n4CC)CC(C)(C)COC(=O)[C@@H]3CCCN(N3)C2=O)C(C)C)C1 (atropisomer, axis not shown) , assay system NCI-H358 cells (K-Ras G12C).
> 5.30

Name the recorded pEC50 of CCn1c(-c2cccnc2[C@H](C)OC)c2c3cc(ccc31)-c1csc(n1)C[C@H](NC(=O)[C@H](C(C)C)N(C)C(=O)N1CCN(C(=O)/C=C/CN(C)C)C3(CC3)C1)C(=O)N1CCC[C@H](N1)C(=O)OCC(C)(C)C2 (atropisomer, axis not shown) , assay system NCI-H358 cells (K-Ras G12C).
> 5.30

Name the recorded pEC50 of C=C(OC)C(=O)N1CC(N(C)C(=O)N(C)[C@H](C(=O)N[C@H]2Cc3nc(cs3)-c3ccc4c(c3)c(c(-c3cccnc3[C@H](C)OC)n4CC)CC(C)(C)COC(=O)[C@@H]3CCCN(N3)C2=O)C(C)C)C1 (atropisomer, axis not shown) , assay system NCI-H358 cells (K-Ras G12C).
> 5.30

Name the recorded pEC50 of C=CC(=O)N1CC[C@H](C(=O)N(C)[C@H](C(=O)N[C@H]2Cc3cc(O)cc(c3)-c3ccc4c(c3)c(c(-c3cccnc3COC)n4C)CC(C)(C)COC(=O)[C@@H]3CCCN(N3)C2=O)C(C)C)C1 , assay system NCI-H358 cells (K-Ras G12C).
> 5.30

Name the recorded pEC50 of C=CC(=O)N1CC[C@H](C(=O)N(C)[C@H](C(=O)N[C@H]2Cc3cc(O)cc(c3)-c3ccc4c(c3)c(c(-c3cnccc3[C@@H](OC)C3CC3)n4CC)CC(C)(C)COC(=O)[C@@H]3CCCN(N3)C2=O)C(C)C)C1 , assay system NCI-H358 cells (K-Ras G12C).
> 5.30

Name the recorded pEC50 of C=CC(=O)N1CCO[C@@H]2CCN(C(=O)N(C)[C@H](C(=O)N[C@H]3Cc4nc(cs4)-c4ccc5c(c4)c(c(-c4cccnc4[C@H](C)OC)n5CC)CC(C)(C)COC(=O)[C@@H]4CCCN(N4)C3=O)C(C)C)C[C@@H]21 (atropisomer, axis not shown) , assay system NCI-H358 cells (K-Ras G12C).
> 5.30

Name the recorded pEC50 of C=CC(=O)N1C[C@H](C)[C@H](C(=O)N(C)[C@H](C(=O)N[C@H]2Cc3cc(O)cc(c3)-c3ccc4c(c3)c(c(-c3cccnc3COC)n4CC)CC(C)(C)COC(=O)[C@@H]3CCCN(N3)C2=O)C(C)C)C1 , assay system NCI-H358 cells (K-Ras G12C).
> 5.30

Name the recorded pEC50 of C/C=C(\C#N)C(=O)N1CC[C@H](C(=O)N(C)[C@H](C(=O)N[C@H]2Cc3cc(O)cc(c3)-c3ccc4c(c3)c(c(-c3cccnc3COC)n4CC)CC(C)(C)COC(=O)[C@@H]3CCCN(N3)C2=O)C(C)C)C1 , assay system NCI-H358 cells (K-Ras G12C).
> 5.30

Name the recorded pEC50 of C=CC(=O)N1CCC[C@H]2CN(C(=O)N(C)[C@H](C(=O)N[C@H]3Cc4nc(cs4)-c4ccc5c(c4)c(c(-c4cccnc4[C@H](C)OC)n5CC)CC(C)(C)COC(=O)[C@@H]4CCCN(N4)C3=O)C(C)C)C[C@H]21 (atropisomer, axis not shown) , assay system NCI-H358 cells (K-Ras G12C).
> 5.30

Name the recorded pEC50 of CCn1c(-c2cccnc2[C@H](C)OC)c2c3cc(ccc31)-c1nc(co1)C[C@H](NC(=O)[C@@H](COC1CN(C(=O)C#CC(C)(C)N(C)C)C1)C(C)C)C(=O)N1CCC[C@H](N1)C(=O)OCC(C)(C)C2 (atropisomer, axis not shown) , assay system NCI-H358 cells (K-Ras G12C).
> 5.30

Name the recorded pEC50 of CCn1c(-c2cccnc2[C@H](C)OC)c2c3cc(ccc31)-c1cccc(c1)C[C@H](NC(=O)[C@H](C(C)C)N(C)C(=O)[C@H]1CCN(C(=O)/C=C/CN3CC(OC)C3)C1)C(=O)N1CCC[C@H](N1)C(=O)OCC(C)(C)C2 (atropisomer, axis not shown) , assay system NCI-H358 cells (K-Ras G12C).
> 5.30

Name the recorded pEC50 of CO[C@@H](C)c1ncccc1-c1c2c3cc(ccc3n1CC(F)(F)F)-c1cccc(c1)CN(NC(=O)[C@@H](COC1CN(C(=O)C#CC(C)(C)N(C)C)C1)C(C)C)C(=O)N1CCC[C@H](N1)C(=O)OCC(C)(C)C2 (atropisomer, axis not shown) , assay system NCI-H358 cells (K-Ras G12C).
> 5.30
